- protocol_notes: acute toxicity by intraperitoneal route in the mouse
- Format: in vivo
- test_context: in vivo, ip
recorded_endpoint: LD50 (µmol/kg)
Report the figure in µmol/kg without appending any unit label.

Given N=C(N)Nc1nc(CSCCNC(=O)c2cccnc2)cs1 [Compound B, reference compound] , respond with its LD50.
342

* * *

# ED50 values compiled below
- system_tested: histamine H2 receptors (Rattus norvegicus)
- Construct: from tissue; host or cells: stomach of the atropinized rat, in vivo (endogenous receptor)
- Sequence (P25102 whole entry): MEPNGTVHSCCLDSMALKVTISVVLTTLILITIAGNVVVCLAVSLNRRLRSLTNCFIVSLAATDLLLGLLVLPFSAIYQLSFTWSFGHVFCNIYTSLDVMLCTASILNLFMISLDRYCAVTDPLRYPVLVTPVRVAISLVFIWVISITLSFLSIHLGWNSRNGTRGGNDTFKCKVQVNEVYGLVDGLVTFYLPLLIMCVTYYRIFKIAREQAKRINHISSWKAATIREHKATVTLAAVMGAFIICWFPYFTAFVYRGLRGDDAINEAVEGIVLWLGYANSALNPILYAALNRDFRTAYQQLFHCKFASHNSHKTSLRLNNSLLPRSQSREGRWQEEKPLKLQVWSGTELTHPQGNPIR
- protocol_notes: antisecretory activity: antagonism of the gastric acid hypersecretion induced by histamine in the atropinized rat (Ghosh and Schild, modified according to Black et al.)
- Format: in vivo
- test_context: atropinized rat, intravenous route, single administration; histamine i.v. infusion 15 mcmol/kg/hour; read-out: DI50 (ID50: dose which inhibits by 50% the gastric hypersecretion induced by histamine)
Just the number please, in µmol/kg, no unit attached.

CS(=O)(=O)Nc1ccc(C(=O)NCCSCc2csc(NC(=N)N)n2)cc1 [Compound A, reference compound]; 1.66
N=C(N)Nc1nc(CSCCNC(=O)c2ccc[n+]([O-])c2)cs1; 0.1
N=C(N)Nc1nc(CSCCNC(=O)c2cccc(NS(=O)(=O)c3ccccc3)c2)cs1; 0.065

For the molecule N=C(N)Nc1nc(CSCCNC(=O)c2cccnc2)cs1 [Compound B, reference compound] , report ED50.
0.28

* * *

Catalogue of Relative potency (cimetidine = 1) readings, one per entry.
- system_tested: histamine H2 receptors (Rattus norvegicus)
- Construct: from tissue; host or cells: stomach of the atropinized rat, in vivo (endogenous receptor)
- protocol_notes: antisecretory activity: antagonism of the gastric acid hypersecretion induced by histamine in the atropinized rat (Ghosh and Schild, modified according to Black et al.)
- Format: in vivo
- test_context: cimetidine = 1; atropinized rat, i.v.

N=C(N)Nc1nc(CSCCNC(=O)c2cccc(NS(=O)(=O)c3ccccc3)c2)cs1; 14.6
CS(=O)(=O)Nc1cccc(C(=O)NCCSCc2csc(NC(=N)N)n2)c1.Cl; 6.33
CNC(=C[N+](=O)[O-])NCCSCc1ccc(CN(C)C)o1 [Ranitidine, reference compound]; 3.80
N=C(N)Nc1nc(CSCCNC(=O)c2cccnc2)cs1 [Compound B, reference compound]; 7.39
CS(=O)(=O)Nc1ccc(C(=O)NCCSCc2csc(NC(=N)N)n2)cc1 [Compound A, reference compound]; 0.57

Then this molecule:
Read off the recorded Relative potency (cimetidine = 1) for N=C(N)Nc1nc(CSCCNC(=O)c2ccc[n+]([O-])c2)cs1
9.5
